Target: hQ23 (HEK-293 cell line stably transfected with one of the members of the KCNQ family) (Homo sapiens, UniProt O43525+O43526)
Construct: expressed in transfected cells; host or cells: HEK-293, stably transfected
Sequence (O43526 whole entry): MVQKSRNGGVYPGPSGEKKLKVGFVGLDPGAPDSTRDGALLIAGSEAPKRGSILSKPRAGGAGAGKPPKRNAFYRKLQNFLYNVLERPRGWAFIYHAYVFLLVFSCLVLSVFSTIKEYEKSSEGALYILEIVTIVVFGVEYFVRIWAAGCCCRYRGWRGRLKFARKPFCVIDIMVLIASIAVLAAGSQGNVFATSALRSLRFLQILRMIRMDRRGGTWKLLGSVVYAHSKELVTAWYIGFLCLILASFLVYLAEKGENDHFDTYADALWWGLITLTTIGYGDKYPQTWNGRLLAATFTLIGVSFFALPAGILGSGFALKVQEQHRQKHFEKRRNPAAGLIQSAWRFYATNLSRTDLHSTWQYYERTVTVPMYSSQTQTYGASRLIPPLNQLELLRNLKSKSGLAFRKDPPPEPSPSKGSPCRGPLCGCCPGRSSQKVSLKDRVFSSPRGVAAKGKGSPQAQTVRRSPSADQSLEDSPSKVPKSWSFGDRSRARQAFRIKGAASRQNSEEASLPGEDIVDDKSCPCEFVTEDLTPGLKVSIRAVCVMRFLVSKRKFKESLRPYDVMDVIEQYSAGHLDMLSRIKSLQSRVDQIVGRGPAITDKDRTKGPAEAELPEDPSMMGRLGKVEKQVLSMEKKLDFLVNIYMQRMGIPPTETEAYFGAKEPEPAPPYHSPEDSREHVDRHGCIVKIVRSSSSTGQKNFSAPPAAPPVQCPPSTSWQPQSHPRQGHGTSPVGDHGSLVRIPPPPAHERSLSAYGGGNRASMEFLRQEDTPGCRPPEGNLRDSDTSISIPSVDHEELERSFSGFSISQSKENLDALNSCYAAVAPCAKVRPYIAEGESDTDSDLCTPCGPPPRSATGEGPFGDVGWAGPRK
Sequence (O43525 whole entry): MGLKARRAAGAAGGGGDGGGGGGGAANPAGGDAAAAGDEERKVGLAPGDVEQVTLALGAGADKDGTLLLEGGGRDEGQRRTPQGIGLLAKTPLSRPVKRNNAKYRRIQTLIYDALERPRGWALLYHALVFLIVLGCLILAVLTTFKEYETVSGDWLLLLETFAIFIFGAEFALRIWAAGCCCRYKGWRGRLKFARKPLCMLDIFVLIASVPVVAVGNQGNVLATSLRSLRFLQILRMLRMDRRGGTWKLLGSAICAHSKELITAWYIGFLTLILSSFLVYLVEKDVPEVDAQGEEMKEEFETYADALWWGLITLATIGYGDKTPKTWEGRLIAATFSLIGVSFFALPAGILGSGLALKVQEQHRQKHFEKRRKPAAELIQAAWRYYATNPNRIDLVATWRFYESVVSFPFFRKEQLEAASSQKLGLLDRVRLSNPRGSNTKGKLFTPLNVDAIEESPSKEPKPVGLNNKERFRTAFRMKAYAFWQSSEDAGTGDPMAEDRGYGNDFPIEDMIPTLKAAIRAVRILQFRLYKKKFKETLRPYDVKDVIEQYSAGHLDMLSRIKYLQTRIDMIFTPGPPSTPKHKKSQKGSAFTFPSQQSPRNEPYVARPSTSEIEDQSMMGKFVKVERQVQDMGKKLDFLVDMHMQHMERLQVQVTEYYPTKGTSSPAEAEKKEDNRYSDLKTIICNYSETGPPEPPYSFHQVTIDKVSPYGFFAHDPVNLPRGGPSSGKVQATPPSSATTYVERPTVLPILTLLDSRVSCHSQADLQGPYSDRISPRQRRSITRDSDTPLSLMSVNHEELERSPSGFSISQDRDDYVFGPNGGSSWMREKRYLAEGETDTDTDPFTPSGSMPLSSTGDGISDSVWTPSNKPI
Experiment: Thallium flux assay for KCNQ channel blockers (FLIPR, BTC dye)
Format: cell-based
Settings: hQ23 cells, thallium flux
pEC50: −log10 of the molar value.
recorded-endpoint: pEC50

{"columns": ["compound", "pEC50"],
 "data": [
  ["CC1CCCN(c2ncc(C(=O)NCc3ccc(F)cc3F)c(C3(c4ccccc4)CCCC3)n2)C1 (stereo not shown)", 7.43],
  ["CC(NC(=O)c1cnc(N2CCN(C)CC2)nc1C1(c2ccc(Cl)cc2)CCCC1)c1cccc2ccccc12 (stereo not shown)", 6.19],
  ["O=C(NCc1ccc(Cl)cc1Cl)c1cnc(NC2CC2)nc1C1(c2ccc(Cl)cc2)CCCC1", 6.71],
  ["CC1CCC(Nc2ncc(C(=O)N3CCc4ccccc4C3)c(C3(c4ccc(F)cc4)CCCC3)n2)CC1 (stereo not shown)", 6.43],
  ["CCN(C(=O)c1cnc(NC2CCCC2)nc1C1(c2ccc(F)cc2)CCCC1)C1CCCCC1", 6.32]
]}

I. CCC(C)Nc1ncc(C(=O)NCc2ccc3c(c2)OCO3)c(C2(c3ccccc3)CCCC2)n1 (stereo not shown)
II. CN(C)CCNc1ncc(C(=O)NCc2ccc(Cl)cc2Cl)c(C2(c3ccc(Cl)cc3)CCCC2)n1
Q: Smaller pEC50 value, I vs II ? Please indicate the selected item by its label.
Result: II
(II: 6.15, I: 6.52)
